pIC50: −log10 of the molar value.
The entries below pair compounds with pIC50 values for Monoglyceride lipase (Mus musculus), as found in several publications.

[[record]]
compound = "CC(=O)N(C)c1cnn(C(=O)N2CC3(CCN(Cc4ccc(N5CCOCC5)cc4Cl)CC3)C2)c1"
result = "5.00 to 6.00"


input: Given `O=C(OC(C(F)(F)F)C(F)(F)F)N1CCC2(CCN(Cc3ccccn3)C2)CC1` , state its recorded pIC50.
output: 6.00 to 7.00

input: Another compound to look at: `CC(=O)N(C)c1cnn(C(=O)N2C[C@H]3C[C@H](NCc4cccc(Cl)c4)C[C@H]3C2)c1`
output: 6.00 to 7.00

input: Another compound to look at: CC(=O)N(C)c1cnn(C(=O)N2CCC3(CCN(Cc4ccc(Cl)c(Cl)c4)C3)C2)c1 (stereo not drawn)
output: 6.00 to 7.00

input: Another compound to look at: `O=C(OC(C(F)(F)F)C(F)(F)F)N1CCC2(CC1)CN(Cc1c(Cl)cccc1N1CCC3(CCOCC3)C1)C2`
output: > 7.00

input: Another compound to look at: CC(=O)N(C)c1cnn(C(=O)N2CCC3(CCN(Cc4cc(Cl)cc(Cl)c4)C3)C2)c1 (stereo not drawn)
output: 6.00 to 7.00

input: Another compound to look at: CC(=O)N(C)c1cnn(C(=O)N2CC3CN(Cc4cccc(N5CCCC5)c4)CC3C2)c1 (stereo not drawn)
output: ≥ 7.00

input: Another compound to look at: `O=C(OC(C(F)(F)F)C(F)(F)F)N1CCC2(CCCN2C(=O)c2cc3cccc(C(F)(F)F)c3s2)CC1`
output: > 7.00

input: Another compound to look at: `O=C(OC(C(F)(F)F)C(F)(F)F)N1CCC2(CCCN2Cc2cnc3ccc(Cl)cn23)CC1`
output: > 7.00

input: Another compound to look at: `CC(=O)N(C)c1cnn(C(=O)N2C[C@H]3C[C@H](N(C)Cc4ccc(Cl)cc4)C[C@H]3C2)c1`
output: ≥ 7.00

input: Another compound to look at: CS(=O)(=O)Nc1cnn(C(=O)N2CC3CN(Cc4cc(Cl)ccc4C(F)(F)F)CC3C2)c1 (stereo not drawn)
output: ≥ 7.00

input: Another compound to look at: `CC(=O)Nc1cnn(C(=O)N2CCN(Cc3ccc(C(F)(F)F)cc3N3CCCC3)CC2)c1`
output: ≥ 7.00

input: Another compound to look at: `CC(=O)N(C)c1cnn(C(=O)N2C[C@H]3C[C@@H](N(C)Cc4ccccc4Cl)C[C@H]3C2)c1`
output: 5.00 to 6.00

input: Another compound to look at: CC(=O)N(C)c1cnn(C(=O)N2CCC3(CCN(Cc4ccc(N5CCCC5)c(Cl)c4)C3)C2)c1 (stereo not drawn)
output: 6.00 to 7.00

input: Another compound to look at: CC(=O)N(C)c1cnn(C(=O)N2CC3CN(Cc4ccc(Cl)c(Cl)c4)CC3C2)c1 (stereo not drawn)
output: 6.00 to 7.00
